test system: phosphorylated ERK in MIA PaCa2 cells with Kras G12C mutation; test: p-ERK HTRF assay for cells (Test Example 2); assay type: cell-based, human; settings: Homo sapiens, MIA PaCa-2, 2 h, MIA PaCa2 cells, 2 hours with compound; read-out: p-ERK IC50
We begin with a simple list: items and their reported log10 IC50.
Note the log scale: values are log10 of IC50 expressed in nM.

[in] Query (molecule): C=CC(=O)N1CCN2c3c(c(=O)n(-c4c(C)ccnc4C(C)C)c4nc(-c5c(O)cccc5F)c(F)cc34)N(C)C(=O)[C@H]2C1 (single isomer, unassigned) [Compound Z9-2] ; field requested: log10 IC50
[out] 2.34

[in] Query (molecule): C=CC(=O)N1C[C@@H]2C(=O)N(C)c3c(c4cc(F)c(-c5c(O)cccc5F)nc4n(-c4c(C)cnn4C(C)C)c3=O)N2C[C@H]1C (single isomer, unassigned) ; field requested: log10 IC50
[out] 2.38

[in] Query (molecule): C=CC(=O)N1CC2C(=O)N(C)c3c(c4cc(F)c(-c5c(O)cccc5F)nc4n(-c4c(C(F)(F)F)ccnc4C(C)C)c3=O)N2C[C@H]1C (single isomer, unassigned) ; field requested: log10 IC50
[out] 2.06

[in] Query (molecule): C=CC(=O)N1CCN2c3c(c(=O)n(-c4c(C)ccnc4C(C)C)c4nc(-c5c(O)cccc5F)c(F)cc34)OC[C@H]2C1 (single isomer, unassigned) [Compound Z1-1] ; field requested: log10 IC50
[out] 2.71

[in] Query (molecule): C=CC(=O)N1C[C@@H]2C(=O)N(C)c3c(c4cc(Cl)c(-c5c(O)cccc5F)nc4n(-c4c(C(C)C)ncnc4C(C)C)c3=O)N2C[C@H]1C ; field requested: log10 IC50
[out] 1.23

Continuing:
[in] Query (molecule): C=CC(=O)N1C[C@@H]2C(=O)N(C)c3c(c4cc(Cl)c(-c5c(O)cccc5F)nc4n(-c4c(C)ccnc4C(C)C)c3=O)N2C[C@H]1C ; field requested: log10 IC50
[out] 1.46

[in] Query (molecule): C=CC(=O)N1CCN2c3c(c(=O)n(-c4c(C)ccnc4C(C)C)c4nc(-c5c(O)cccc5F)c(Cl)cc34)OC[C@H]2C1 ; field requested: log10 IC50
[out] 2.50

====

tested on: MIA PaCa-2 cells with Kras G12C mutation; experiment: Cell proliferation inhibition experiment, 3D spheroid, CellTiter-Glo (Test Example 3); assay type: cell-based, human; details: Homo sapiens, MIA PaCa-2, 120 h, 5 days, read-out: MIA-PaCa2 IC50
API: label(entry) gives yes if the entry's IC50 is strictly smaller than 70 nM; on equality or larger values it gives no.

[in] For this compound, is IC50 lower than 70 nM? C=CC(=O)N1C[C@@H]2C(=O)N(C)c3c(c4cc(F)c(-c5c(O)cccc5F)nc4n(-c4nccnc4C(C)C)c3=O)N2C[C@H]1C [Compound Z22]
[out] no

[in] For this compound, is IC50 lower than 70 nM? [2H]C([2H])([2H])N1C(=O)[C@H]2CN(C(=O)C=C)[C@H](C)CN2c2c1c(=O)n(-c1c(C(C)C)ncnc1C(C)C)c1nc(-c3c(F)cccc3OC)c(F)cc21 [Compound Z44a]
[out] no

Continuing:
[in] For this compound, is IC50 lower than 70 nM? C=CC(=O)N1CCN2c3c(c(=O)n(-c4c(C(C)C)ncnc4C(C)C)c4nc(-c5c(O)cccc5F)c(F)cc34)N(C)C(=O)[C@H]2C1 [Compound Z41]
[out] yes

[in] For this compound, is IC50 lower than 70 nM? C=CC(=O)N1C[C@@H]2C(=O)Nc3c(c4cc(F)c(-c5c(O)cccc5F)nc4n(-c4c(C(C)C)ncnc4C(C)C)c3=O)N2C[C@H]1C [Compound Z45]
[out] yes

====

molecular target: KRas G12C (Homo sapiens (Human), UniProt P01116, G12C); test: Nucleotide exchange assay (NEA)-HTRF, SOS1 catalyzed displacement of GDP by GTP (Test Example 4)
Sequence (P01116-2 other isoform, or with tags, fused parts or gaps G12C): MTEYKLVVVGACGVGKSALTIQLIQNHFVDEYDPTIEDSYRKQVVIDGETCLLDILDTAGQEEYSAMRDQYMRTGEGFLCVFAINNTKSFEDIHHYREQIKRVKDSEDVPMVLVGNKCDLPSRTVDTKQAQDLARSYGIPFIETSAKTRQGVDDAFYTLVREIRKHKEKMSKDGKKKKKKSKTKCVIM
parameter: pIC50
Would you please state pIC50, meaning minus log10 of the concentration in mol/L, as a bare number?

[in] Query (compound): C=CC(=O)N1CCN2c3c(c(=O)n(-c4c(C)ccnc4C(C)C)c4nc(-c5c(O)cccc5F)c(F)cc34)OC[C@H]2C1 (single isomer, unassigned) [Compound Z1-1] ; field requested: pIC50
[out] 6.82

[in] Query (compound): C=CC(=O)N1C[C@@H]2C(=O)N(C)c3c(c4cc(F)c(-c5c(O)cccc5F)nc4n(-c4c(C)cnn4C(C)C)c3=O)N2C[C@H]1C (single isomer, unassigned) [Compound Z33-2] ; field requested: pIC50
[out] 6.79

Continuing:
[in] Query (compound): C=CC(=O)N1CCN2c3c(c(=O)n(-c4c(C)ccnc4C(C)C)c4nc(-c5c(O)cccc5F)c(F)cc34)N(C)C(=O)[C@H]2C1 (single isomer, unassigned) [Compound Z9-2] ; field requested: pIC50
[out] 6.94

[in] Query (compound): C=CC(=O)N1C[C@@H]2C(=O)N(C)c3c(c4cc(C5CC5)c(-c5c(O)cccc5F)nc4n(-c4c(C)ccnc4C(C)C)c3=O)N2C[C@H]1C [Compound Z31] ; field requested: pIC50
[out] 6.82

====

system: MIA PaCa-2 cells with Kras G12C mutation; experiment: Cell proliferation inhibition experiment, 3D spheroid, CellTiter-Glo (Test Example 3); type: cell-based, human; conditions: Homo sapiens, MIA PaCa-2, 120 h, 5 days, read-out: MIA-PaCa2 IC50
pIC50: −log10 of the molar value.
Think of 8 as a floor: if pIC50 stands on it or above, it is 1.0; beneath it, 0.0.

Worked cases, answers included:
[in] Please tell me: is the molecule C=CC(=O)N1CCN2c3c(c(=O)n(-c4c(C)ncnc4C(C)C)c4nc(-c5c(O)cccc5F)c(F)cc34)N(C)C(=O)[C@H]2C1 [Compound Z21] at or over 8 in terms of pIC50?
[out] 0.0

[in] Please tell me: is the molecule C=CC(=O)N1C[C@@H]2C(=O)N(C)c3c(c4cc(Cl)c(-c5c(O)cccc5F)c(F)c4n(-c4c(C(C)C)ncnc4C(C)C)c3=O)N2C[C@H]1C [Compound Z50] at or over 8 in terms of pIC50?
[out] 1.0

[in] Please tell me: is the molecule [2H]C([2H])([2H])N1C(=O)[C@H]2CN(C(=O)C=C)[C@H](C)CN2c2c1c(=O)n(-c1c(C(C)C)ncnc1C(C)C)c1nc(-c3c(O)cccc3F)c(F)cc21 [Compound Z44] at or over 8 in terms of pIC50?
[out] 0.0

[in] Please tell me: is the molecule [2H]C([2H])([2H])N1C(=O)[C@H]2CN(C(=O)C=C)CCN2c2c1c(=O)n(-c1c(C(C)C)ncnc1C(C)C)c1c(F)c(-c3c(O)cccc3F)c(Cl)cc21 (atropisomer, axis not shown; (aR)) [Compound Z39-1] at or over 8 in terms of pIC50?
[out] 1.0

[in] Please tell me: is the molecule C=CC(=O)N1C[C@@H]2COc3c(c4cc(F)c(-c5c(F)cccc5OC)nc4n(-c4c(C)ccnc4C(C)C)c3=O)N2C[C@H]1C [Compound Z3a] at or over 8 in terms of pIC50?
[out] 0.0

Continuing:
[in] Please tell me: is the molecule C=CC(=O)N1CCN2c3c(c(=O)n(-c4c(C)ccnc4C(C)C)c4nc(-c5c(O)cccc5F)c(Cl)cc34)OC[C@H]2C1 [Compound Z6] at or over 8 in terms of pIC50?
[out] 0.0

[in] Please tell me: is the molecule C=CC(=O)N1C[C@@H]2C(=O)N(C)c3c(c4cc(Cl)c(-c5c(O)cccc5F)c(F)c4n(-c4c(C(C)C)ncnc4C(C)C)c3=O)N2C[C@H]1C (single isomer, unassigned) [Compound Z50-1] at or over 8 in terms of pIC50?
[out] 1.0

[in] Please tell me: is the molecule C=CC(=O)N1C[C@@H]2C(=O)N(C)c3c(c4cc(F)c(-c5c(O)cccc5F)nc4n(-c4c(C)cnn4C(C)C)c3=O)N2C[C@H]1C (single isomer, unassigned) [Compound Z33-1] at or over 8 in terms of pIC50?
[out] 0.0

[in] Please tell me: is the molecule C=CC(=O)N1CCN2c3c(c(=O)n(-c4c(C)ccnc4C(C)C)c4nc(-c5c(O)cccc5F)c(F)cc34)OC[C@@H]2C1 [Compound Z28] at or over 8 in terms of pIC50?
[out] 0.0

[in] Please tell me: is the molecule C=CC(=O)N1C[C@@H]2C(=O)N(C)c3c(c4cc(Cl)c(-c5c(O)cccc5F)nc4n(-c4c(C(C)C)ncnc4C(C)C)c3=O)N2C[C@H]1C [Compound Z23] at or over 8 in terms of pIC50?
[out] 1.0

[in] Please tell me: is the molecule C=CC(=O)N1CCN2c3c(c(=O)n(-c4c(C)ccnc4C(C)C)c4nc(-c5c(O)cccc5F)c(F)cc34)N(C)C(=O)CC2C1 (centres unmarked) [Compound Z43] at or over 8 in terms of pIC50?
[out] 0.0

[in] Please tell me: is the molecule C=CC(=O)N1C[C@@H]2C(=O)N(C)c3c(c4cc(F)c(-c5c(O)cccc5F)nc4n(-c4c(C)cc(C)nc4C(C)C)c3=O)N2C[C@H]1C [Compound Z46] at or over 8 in terms of pIC50?
[out] 0.0

[in] Please tell me: is the molecule C=CC(=O)N1C[C@@H]2C(=O)N(C)c3c(c4cc(Cl)c(-c5c(O)cccc5F)nc4n(-c4c(C)ccnc4C(C)C)c3=O)N2C[C@H]1C [Compound Z27] at or over 8 in terms of pIC50?
[out] 1.0

[in] Please tell me: is the molecule C=CC(=O)N1C[C@@H]2C(=O)N(C)c3c(c4cc(F)c(-c5c(O)cccc5F)nc4n(-c4c(C(C)C)nn(C)c4C)c3=O)N2C[C@H]1C [Compound Z47] at or over 8 in terms of pIC50?
[out] 0.0
